- Assay protocol: GST conjugation of CDNB with glutathione (HPLC)
- Type: biochemical
- Study conditions: purified enzyme, 0.4 mM electrophilic substrate, 4 mM glutathione, 0.1 M MOPS pH 7.0

# Molecule, activity of enzyme with CDNB, nmol/min/mg
rows = [
    ("cs1.pk0010.c5: maize class I GST enzyme encoded by cDNA clone, expressed in E. coli (protein) MAAGLQVFGQPASTDVARVLTCLFEKKLEFELVRIDTFKTHHRLPEFIRLRDPNGQVTFKHGDKTLVDSRDICRYVCNQFPNYGNKSLYGSGALERASIEQWLQAEAQNFGPPSSALVFQLAFVPHLSHLGVRQDPAVIAENEDKLKQVLDVYDEILSKNEYLAGDEFTLADLSHLPNSHYIVNTERGRKLFTNKKNVAKWYDRLSKRETWVQVVKMQKEHPGAFK", 30),
    ("ceb1.pk0017.a5: maize class I GST enzyme encoded by cDNA clone, expressed in E. coli (protein) MAAPVTVYGPMLSPAVARVAACLLEKDVPFQIEPVDMSKGEHKSPSFLKLQPFGQVPAFKDHLTTVFESRAICRYICDQYADSGNQALFGKKEDGAVGRAAIEQWIESEGQSFNPPSLAIIFQLAFAPMMGRTTDLAVVEQNEAKLAKVLDVYDQRLGESQYFAGDDFSPGRPCALAQCRFPCEQNQQGWLDHREKESC", 15),
    ("bms1.pk0023.g8: maize class I GST enzyme encoded by cDNA clone, expressed in E. coli (protein) MAPPMKVYGWAVSPWMARALVCLEEAGADYEIVPMSRCGGDHRRPEHLAKNPFGEIPVLEDGDLTLYQSRAIARYVLRKLKPELLREGDLEGSAMVDAWMEVEAHHMEPALWPIIRHSIIGQYVGRERDHQAVIDENLDRLRKVLPAYEARLSVCKYLVGDDISAADLCHFGFMRYFMATEYAGLVDAYPHVKAWWDALLARPSVQKVMAGMPPDFGYASGNIP", 15),
    ("ceb5.pk0049.a11: maize class III GST enzyme encoded by cDNA clone, expressed in E. coli (protein) MAEEKKQGLQLLDFWVSPFGQRCRIALDEKGLAYEYLEQDLRNKSELLLRANPVHKKIPVLLHDGRPVCESLVIVQYLDEAFPEAAPALLPADPYARAQARFWADYVDKKLYDCGTRLWKLKGDGQAQARAEMVEILRTLEGALGDGPFFGGDALGFVDVALVPFTSWFLAYDRFGGVSVEKECPRLAAWAKRCAERPSVAKNLYPPEKVYDFVCGMKKRLGIE", 3939),
    ("m.15.5.d06.sk20: maize class II GST enzyme encoded by cDNA clone, expressed in E. coli (protein) MAEVEATVGRLMLYSYWRSSCSHRARIALNLKGVDYEYKAVNLLKGEQSDPEFVKLNPMKFVPALVDGSSVIGDSYAITLYLEDKYPEPPLLPQDLQKKALNHQIASIVASGIQPLHNLTVLRFIDQKVGAGESVLWTQQQIERGFTAIENLIQLKGCAGKYATGDEVQLADVFLAPQIYAAIERTKIDMSNYLTLARLHSEYMSHPAFEAALPGKQPDAPSSS", 45),
]
